Source listed as PubChem BioAssay AID1963971.

Tested on: 953936-095-R-J2-PDC spheroids with HUVEC/MSC, viability
assay.procedure: Anticancer human tumor 953936-095-R-J2-PDC patient-derived cervical squamous cell carcinoma cell line growth inhibition [PI3K]
test.settings: curve of first compound; second compound 10 µM
pIC50: −log10 of the molar value.
experimental.readout: pIC50

Problem: Lab request: please report pIC50 under test system 953936-095-R-J2-PDC spheroids with HUVEC/MSC, viability for CC1(C)CCC(Nc2ncc(C(F)(F)F)c(-c3c[nH]c4c(P(C)(C)=O)c(C#N)ccc34)n2)CN1 (configuration not stated) + CC(Nc1ncnc2nc[nH]c12)c1cc2cccc(Cl)c2c(=O)n1-c1ccccc1
Solution: > 7.50

Problem: Lab request: please report pIC50 under test system 953936-095-R-J2-PDC spheroids with HUVEC/MSC, viability for Cn1ncnc1[C@H]1c2n[nH]c(=O)c3cc(F)cc(c23)N[C@@H]1c1ccc(F)cc1 + Cc1nc(NC(=O)N2CCCC2C(N)=O)sc1-c1ccnc(C(C)(C)C(F)(F)F)c1
Solution: > 9.50

Problem: Lab request: please report pIC50 under test system 953936-095-R-J2-PDC spheroids with HUVEC/MSC, viability for CNC(=O)c1ccc(N2C(=S)N(c3ccc(C#N)c(C(F)(F)F)c3)C(=O)C2(C)C)cc1F + CC(Nc1ncnc2nc[nH]c12)c1cc2cccc(Cl)c2c(=O)n1-c1ccccc1
Solution: < 5.00

Problem: Lab request: please report pIC50 under test system 953936-095-R-J2-PDC spheroids with HUVEC/MSC, viability for CC(=O)c1c(C)c2cnc(Nc3ccc(N4CCNCC4)cn3)nc2n(C2CCCC2)c1=O + Cc1nc(NC(=O)N2CCCC2C(N)=O)sc1-c1ccnc(C(C)(C)C(F)(F)F)c1
Solution: > 9.50

Problem: Lab request: please report pIC50 under test system 953936-095-R-J2-PDC spheroids with HUVEC/MSC, viability for C[C@@H](NC(=O)c1ncnc(N)c1Cl)c1ncc(C(=O)Nc2cc(C(F)(F)F)c(Cl)cn2)s1 + CC(Nc1ncnc2nc[nH]c12)c1cc2cccc(Cl)c2c(=O)n1-c1ccccc1
Solution: < 5.00

Problem: Lab request: please report pIC50 under test system 953936-095-R-J2-PDC spheroids with HUVEC/MSC, viability for Cn1ncc(Cl)c1-c1cc(C(=O)NC(CN)Cc2cccc(F)c2)sc1Cl (configuration not stated) + Cc1nc(NC(=O)N2CCCC2C(N)=O)sc1-c1ccnc(C(C)(C)C(F)(F)F)c1
Solution: > 7.50

Problem: Lab request: please report pIC50 under test system 953936-095-R-J2-PDC spheroids with HUVEC/MSC, viability for Cn1ncnc1[C@H]1c2n[nH]c(=O)c3cc(F)cc(c23)N[C@@H]1c1ccc(F)cc1 + CC(Nc1ncnc2nc[nH]c12)c1cc2cccc(Cl)c2c(=O)n1-c1ccccc1
Solution: < 7.00

###

Field: IC50. Provide a value for each of the compounds that follow.
Test system: 953936-095-R-J2-PDC spheroids with HUVEC/MSC, viability
assay.procedure: Anticancer human tumor 953936-095-R-J2-PDC cell line growth inhibition [PI3K];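 note: spheroids exposed to compounds for seven days before read-out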
test.settings: curve of first compound; second compound 1 µM

Problem: Looking for the measured IC50 of CNC(=O)c1ccc(N2C(=S)N(c3ccc(C#N)c(C(F)(F)F)c3)C(=O)C2(C)C)cc1F + CC(Nc1ncnc2nc[nH]c12)c1cc2cccc(Cl)c2c(=O)n1-c1ccccc1 , can you help?
Solution: > 10000 nM

Problem: Looking for the measured IC50 of Cn1cnc2c(F)c(Nc3ccc(Br)cc3Cl)c(C(=O)NOCCO)cc21 + COc1c(OCCCN2CCOCC2)ccc2c3n(c(=NC(=O)c4cnc(N)nc4)nc12)CCN3 , can you help?
Solution: < 9.49 nM

Problem: Looking for the measured IC50 of C#Cc1c(F)ccc2cc(O)cc(-c3ncc4c(N5CC6CCC(C5)N6)nc(OCC56CCCN5CC(F)C6)nc4c3F)c12 (stereo not given) + CC(Nc1ccc2c(c1)OCCn1cc(N3C(=O)OCC3C(F)F)nc1-2)C(N)=O , can you help?
Solution: < 31.6 nM

Problem: Looking for the measured IC50 of Cn1nccc1Nc1nccc(-c2ccn(C(CO)c3ccc(Cl)c(F)c3)c(=O)c2)n1 (stereo not given) + CC(Nc1ccc2c(c1)OCCn1cc(N3C(=O)OCC3C(F)F)nc1-2)C(N)=O , can you help?
Solution: < 31.6 nM

Problem: Looking for the measured IC50 of CC1(C)CCC(CN2CCN(c3ccc(C(=O)NS(=O)(=O)c4ccc(NCC5CCOCC5)c([N+](=O)[O-])c4)c(Oc4cnc5[nH]ccc5c4)c3)CC2)=C(c2ccc(Cl)cc2)C1 + CC(Nc1ccc2c(c1)OCCn1cc(N3C(=O)OCC3C(F)F)nc1-2)C(N)=O , can you help?
Solution: < 31.6 nM
